Target: MALT1-GS-Ub (6-His-hMALT-1 residues 339-715 fused to ubiquitin) (Homo sapiens)
Assay: biochemical
Exercise: state measured pIC50 for each of the compounds provided.
Give bare numbers, as −log10 of the molar value.

• CN(C(=O)C1CNC1)C(c1ccc(NC2Cc3ccccc3C2(C)C)cn1)C(F)(F)F (single isomer, unassigned) [Example 83] = 4.80
• CN(C(=O)CCN1CCCC1=O)[C@@H](c1ccc(NC2Cc3ccccc3C2(C)C)cc1)C(F)(F)F (single isomer, unassigned) [Example 47] = 6.77
• CN(C(=O)N1CCC(O)CC1)[C@@H](c1ccc(NC2Cc3ccccc3C2(C)C)cc1)C(F)(F)F (single isomer, unassigned) [Example 23] = 6.41
• CN(C(=O)OC1CN(C(=O)OC(C)(C)C)C1)[C@@H](c1ccc(NC2Cc3ccccc3C2(C)C)cc1)C(F)(F)F (stereo partly drawn) [Example 59] = 5.57
• CN1CC(C(=O)N(C)C(c2ccc(NC3Cc4ccccc4C3(C)C)cn2)C(F)(F)F)C1 (single isomer, unassigned) [Example 90] = 4.09

Please fill in: pIC50 reported for CC(=O)N1CC(C(=O)N(C)[C@@H](c2ccc(NC3Cc4ccccc4C3(C)C)cc2)C(F)(F)F)C1 (single isomer, unassigned) [Example 6] = 6.82

###

Molecular target: MALT1-GS-Ub (6-His-hMALT-1 residues 339-715 fused to ubiquitin) (Homo sapiens, UniProt Q9UDY8);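 further: in vitro MALT1 protease assay: enzyme preincubated with compound 30 min at room temperature, then cleavage of fluorogenic Ac-LVSR-AMC substrate (100 µM) followed by fluorescence every 15 min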
Sequence (Q9UDY8 with tags, fused parts or gaps limits assumed): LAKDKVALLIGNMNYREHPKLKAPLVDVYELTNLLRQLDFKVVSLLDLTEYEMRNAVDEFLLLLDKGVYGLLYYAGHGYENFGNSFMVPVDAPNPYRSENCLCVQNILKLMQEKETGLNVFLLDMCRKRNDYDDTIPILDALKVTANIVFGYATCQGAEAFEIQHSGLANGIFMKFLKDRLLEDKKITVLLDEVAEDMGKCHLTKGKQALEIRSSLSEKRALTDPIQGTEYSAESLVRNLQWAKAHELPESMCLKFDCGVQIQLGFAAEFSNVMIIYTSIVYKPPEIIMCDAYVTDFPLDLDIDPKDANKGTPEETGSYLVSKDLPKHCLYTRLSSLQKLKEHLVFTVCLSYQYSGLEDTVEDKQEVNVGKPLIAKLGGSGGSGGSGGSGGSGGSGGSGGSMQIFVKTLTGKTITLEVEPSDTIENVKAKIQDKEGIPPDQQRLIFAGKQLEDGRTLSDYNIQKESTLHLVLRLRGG
Assay: biochemical
Consider the following compounds; for each one, report its pIC50.
Give bare numbers, as −log10 of the molar value.

Solved cases (5 shown):
• CC(=O)N1CC(C(=O)N(C)[C@@H](c2ccc(NC3Cc4ccccc4C3(C)C)cc2)C(F)(F)F)C1 (single isomer, unassigned) [Example 7] = 6.72
• CC1c2ccccc2CC1Nc1ccc(C(N(C)C(=O)C2CCS(=O)(=O)CC2)C(F)(F)F)cc1 (mixture of isomers) = 6.70
• CN(C(=O)C1CNC1)C(c1ccc(NC2Cc3ccccc3C2(C)C)cn1)C(F)(F)F (single isomer, unassigned) [Example 86] = 4.96
• CN(C(=O)C1CCS(=O)(=O)CC1)[C@@H](c1ccc(NC2Cc3ccccc3C2(C)C)cn1)C(F)(F)F (single isomer, unassigned) [Example 78] = 6.55
• CN(C(=O)C1CCS(=O)(=O)CC1)[C@@H](c1ccc(NC2Cc3ccccc3C2(C)C)cc1)C(F)(F)F (single isomer, unassigned) = 6.85

For every record below, what is its pIC50?
1. CN(C(=O)C1CN(S(C)(=O)=O)C1)[C@@H](c1ccc(NC2Cc3ccccc3C2(C)C)cc1)C(F)(F)F (single isomer, unassigned) [Example 69]
2. CN(C(=O)c1cc[nH]c(=O)c1)C(c1ccc(NC2Cc3ccccc3C2(C)C)cn1)C(F)(F)F (single isomer, unassigned) [Example 97]

Response:
[6.55, 4.80]

Provide pIC50 values for the following items, in order.
1. CN(C(=O)C1CCS(=O)(=O)CC1)[C@@H](c1ccc(NC2Cc3cc(Cl)ccc3C2(C)C)cc1)C(F)(F)F (single isomer, unassigned) [Example 152]
2. CN(C(=O)CN1CCCC1=O)[C@@H](c1ccc(NC2Cc3ccccc3C2(C)C)cc1)C(F)(F)F (single isomer, unassigned) [Example 45]
3. CN(C(=O)C1CNC1)C(c1ccc(NC2Cc3ccccc3C2(C)C)nc1)C(F)(F)F (single isomer, unassigned) [Example 89]
4. CNS(=O)(=O)CCCC(=O)N(C)[C@@H](c1ccc(NC2Cc3ccccc3C2(C)C)cc1)C(F)(F)F (single isomer, unassigned) [Example 64]

Response:
1: 6.59; 2: 6.62; 3: 5.16; 4: 6.82

Item: CN(C(=O)CCO)[C@@H](c1ccc(NC2Cc3ccccc3C2(C)C)cc1)C(F)(F)F (single isomer, unassigned) [Example 35] | pIC50: 6.54
